# System: HOP-92
# protocol summary: Antitumor activity against human HOP92 cells
# Assay type: functional
measure: GI50 (µM)

> print(dat)
                compound.structure.string  measurement.unit  measured
1          O=c1[nH]c2ccccc2n2cc3ccccc3c12                µM      3.98
2  O=c1[nH]c2cc(Cl)c(Cl)cc2n2cc3ccccc3c12                µM      18.2
3    COc1ccc2c(c1)[nH]c(=O)c1c3ccccc3cn21                µM         1
4      Cc1cc2[nH]c(=O)c3c4ccccc4cn3c2cc1C                µM      15.5
5       Cc1cccc2c1[nH]c(=O)c1c3ccccc3cn21                µM      3.98

Data origin, for the record: ChEMBL document CHEMBL1144782
